Quick list: half-life at 2 μM per entry.
# assay_explanation: Stability against liver microsomes
# Assay type: in vitro ADME, human
# condition: human, human liver microsomes, pH 7.8, 37° C., read-out: half-life (t1/2) with liver microsomes
Use min as the unit, but write only the number.

>  <compound>
CCc1cc(OC)ccc1-c1ccc(CC(NC(=O)[C@H](CC(=O)O)NC(=O)[C@H](CO)NC(=O)[C@@H](NC(=O)[C@H](Cc2ccccc2)NC(=O)[C@@H](NC(=O)CNC(=O)[C@H](CCC(N)=O)NC(=O)[C@H](CO)NC(=O)[C@@H](N)Cc2c[nH]cn2)[C@@H](C)O)[C@@H](C)O)C(=O)NC(Cc2ccc(-c3ccccc3C(F)(F)F)cc2)C(N)=O)cc1 (single isomer, unassigned) [compound 8]

>  <half-life at 2 μM, min>
30

$$$$
>  <compound>
CCc1cc(OC)ccc1-c1ccc(CC(NC(=O)[C@H](CC(=O)O)NC(=O)[C@H](CO)NC(=O)[C@@H](NC(=O)[C@H](Cc2ccccc2)NC(=O)[C@@H](NC(=O)CNC(=O)[C@H](CCC(N)=O)NC(=O)[C@H](C)NC(=O)[C@@H](N)Cc2c[nH]cn2)[C@@H](C)O)[C@@H](C)O)C(=O)NC(Cc2ccc(-c3ccccc3C)cc2)C(N)=O)cc1 (single isomer, unassigned) [compound 9]

>  <half-life at 2 μM, min>
30

$$$$

I have this compound here, CCc1cc(OC)ccc1-c1ccc(CC(NC(=O)[C@H](CC(=O)O)NC(=O)[C@H](CO)NC(=O)[C@@H](NC(=O)[C@H](Cc2ccccc2)NC(=O)[C@@H](NC(=O)CNC(=O)[C@H](CCC(N)=O)NC(=O)[C@H](C)NC(=O)[C@@H](N)Cc2c[nH]cn2)[C@@H](C)O)[C@@H](C)O)C(=O)NC(Cc2ccc(-c3ccccc3C)nc2)C(N)=O)cc1 (single isomer, unassigned) [compound 10] , and I need its recorded half-life at 2 μM. 30

###

# assay_explanation: Stability in simulated gastric fluid
# Type: in vitro ADME
# condition: 2 μM, 37° C., 24 h, pH 1.5, pepsin
observed_property: % degradation in 24 h when incubated with simulated gastric fluid (%)
Value expressed in %; do not type the unit.

Please review the following examples before continuing.
>  <compound>
CCc1cc(OC)ccc1-c1ccc(CC(NC(=O)[C@H](CC(=O)O)NC(=O)[C@H](CO)NC(=O)[C@@H](NC(=O)C(C)(Cc2ccccc2F)NC(=O)[C@@H](NC(=O)CNC(=O)[C@H](CCC(N)=O)NC(=O)C2(NC(=O)[C@@H](N)Cc3c[nH]cn3)CC2)[C@@H](C)O)[C@@H](C)O)C(=O)NC(Cc2ccc(-c3ccccc3F)cc2)C(N)=O)cc1 (single isomer, unassigned)

>  <value>
00

$$$$
>  <compound>
CCc1cc(OC)ccc1-c1ccc(CC(NC(=O)[C@H](CC(=O)O)NC(=O)[C@H](CO)NC(=O)[C@@H](NC(=O)[C@H](Cc2ccccc2)NC(=O)[C@@H](NC(=O)CNC(=O)[C@H](CCC(N)=O)NC(=O)C2(NC(=O)[C@@H](N)Cc3c[nH]cn3)CC2)[C@@H](C)O)[C@@H](C)O)C(=O)NC(Cc2ccc(-c3ccccc3C(F)(F)F)cc2)C(N)=O)cc1 (single isomer, unassigned)

>  <value>
41

$$$$
>  <compound>
CCc1cc(OC)ccc1-c1ccc(CC(NC(=O)[C@H](CC(=O)O)NC(=O)[C@H](CO)NC(=O)[C@@H](NC(=O)C(C)(Cc2ccccc2F)NC(=O)[C@@H](NC(=O)CNC(=O)[C@H](CCC(N)=O)NC(=O)[C@H](C)NC(=O)[C@@H](N)Cc2c[nH]cn2)[C@@H](C)O)[C@@H](C)O)C(=O)NC(Cc2ccc(-c3ccccc3F)cc2)C(N)=O)cc1 (single isomer, unassigned)

>  <value>
15

$$$$
>  <compound>
CCc1cc(OC)ccc1-c1ccc(CC(NC(=O)[C@H](CC(=O)O)NC(=O)[C@H](CO)NC(=O)[C@@H](NC(=O)C(C)(Cc2ccccc2F)NC(=O)[C@@H](NC(=O)CNC(=O)[C@H](CCC(N)=O)NC(=O)C(C)(C)NC(=O)[C@@H](N)Cc2c[nH]cn2)[C@@H](C)O)[C@@H](C)O)C(=O)NC(Cc2ccc(-c3ccccc3F)cc2)C(N)=O)cc1 (single isomer, unassigned)

>  <value>
00

$$$$
>  <compound>
CCc1cc(OC)ccc1-c1ccc(CC(NC(=O)[C@H](CC(=O)O)NC(=O)[C@H](CO)NC(=O)[C@@H](NC(=O)[C@H](Cc2ccccc2)NC(=O)[C@@H](NC(=O)CNC(=O)[C@H](CCC(N)=O)NC(=O)C(C)(C)NC(=O)[C@@H](N)Cc2c[nH]cn2)[C@@H](C)O)[C@@H](C)O)C(=O)NC(Cc2ccc(-c3ccccc3C)nc2)C(N)=O)cc1 (single isomer, unassigned)

>  <value>
55

$$$$
>  <compound>
CCc1cc(OC)ccc1-c1ccc(CC(NC(=O)[C@H](CC(=O)O)NC(=O)[C@H](CO)NC(=O)[C@@H](NC(=O)[C@H](Cc2ccccc2)NC(=O)[C@@H](NC(=O)CNC(=O)[C@H](CCC(N)=O)NC(=O)[C@H](C)NC(=O)[C@@H](N)Cc2c[nH]cn2)[C@@H](C)O)[C@@H](C)O)C(=O)NC(Cc2ccc(-c3ccccc3C)nc2)C(N)=O)cc1 (single isomer, unassigned)

>  <value>
100

$$$$
>  <compound>
CCc1cc(OC)ccc1-c1ccc(CC(NC(=O)[C@H](CC(=O)O)NC(=O)[C@H](CO)NC(=O)[C@@H](NC(=O)[C@H](Cc2ccccc2)NC(=O)[C@@H](NC(=O)CNC(=O)[C@H](CCC(N)=O)NC(=O)C2(NC(=O)[C@@H](N)Cc3c[nH]cn3)CC2)[C@@H](C)O)[C@@H](C)O)C(=O)NC(Cc2ccc(-c3ccccc3C)nc2)C(N)=O)cc1 (single isomer, unassigned)

>  <value>
52

$$$$
>  <compound>
CCc1cc(OC)ccc1-c1ccc(CC(NC(=O)[C@H](CC(=O)O)NC(=O)[C@H](CO)NC(=O)[C@@H](NC(=O)[C@H](Cc2ccccc2)NC(=O)[C@@H](NC(=O)CNC(=O)[C@H](CCC(N)=O)NC(=O)[C@H](C)NC(=O)[C@@H](N)Cc2c[nH]cn2)[C@@H](C)O)[C@@H](C)O)C(=O)NC(Cc2ccc(-c3ccccc3F)cc2)C(N)=O)cc1 (single isomer, unassigned)

>  <value>
100

$$$$

# get_value(readout='% degradation in 24 h when incubated with simulated gastric fluid', item= CCc1cc(OC)ccc1-c1ccc(CC(NC(=O)[C@H](CC(=O)O)NC(=O)[C@H](CO)NC(=O)[C@@H](NC(=O)[C@H](Cc2ccccc2)NC(=O)[C@@H](NC(=O)CNC(=O)[C@H](CCC(N)=O)NC(=O)[C@H](CO)NC(=O)[C@@H](N)Cc2c[nH]cn2)[C@@H](C)O)[C@@H](C)O)C(=O)NC(Cc2ccc(-c3ccccc3C)nc2)C(N)=O)cc1 (single isomer, unassigned) ) 100

Form field: reported % degradation in 24 h when incubated with simulated gastric fluid of CCc1cc(OC)ccc1-c1ccc(CC(NC(=O)[C@H](CC(=O)O)NC(=O)[C@H](CO)NC(=O)[C@@H](NC(=O)[C@H](Cc2ccccc2)NC(=O)[C@@H](NC(=O)CNC(=O)[C@H](CCC(N)=O)NC(=O)[C@H](C)NC(=O)[C@@H](N)Cc2c[nH]cn2)[C@@H](C)O)[C@@H](C)O)C(=O)NC(Cc2ccc(-c3ccccc3C)cc2)C(N)=O)cc1 (single isomer, unassigned) 100

Data provenance is patent US8841413B2.
